Values from PubChem BioAssay AID1851

- SYSTEM NAME: Cytochrome P450 1A2 (Homo sapiens) (UniProt P05177)
- Sequence (P05177 whole entry, looked up): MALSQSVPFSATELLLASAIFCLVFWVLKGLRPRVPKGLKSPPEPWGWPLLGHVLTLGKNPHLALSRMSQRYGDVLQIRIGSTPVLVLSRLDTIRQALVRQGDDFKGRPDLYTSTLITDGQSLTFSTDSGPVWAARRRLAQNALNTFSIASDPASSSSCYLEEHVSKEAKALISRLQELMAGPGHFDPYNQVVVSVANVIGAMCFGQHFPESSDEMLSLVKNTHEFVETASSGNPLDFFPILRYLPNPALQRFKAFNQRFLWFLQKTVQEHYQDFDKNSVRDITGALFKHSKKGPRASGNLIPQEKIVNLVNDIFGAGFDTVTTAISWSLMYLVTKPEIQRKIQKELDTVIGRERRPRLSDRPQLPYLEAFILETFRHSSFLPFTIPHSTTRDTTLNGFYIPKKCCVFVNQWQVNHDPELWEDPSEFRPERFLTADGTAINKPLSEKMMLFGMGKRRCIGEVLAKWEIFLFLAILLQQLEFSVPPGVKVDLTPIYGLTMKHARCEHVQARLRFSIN
- PROCEDURE TEXT: Cytochrome panel assay with activity outcomes
- DETAILS: recombinant CYP, pro-luciferin dealkylation, luminescence, p450-cyp1a2; series mostly up to 57.1 µM
Among all 16,000 compounds or so, about 5,700 (36%) were called active. Another 24% or so got no clear call; they are omitted. Calls follow the shape of the dose curve; as a rule, active = well fitted curve in the direction sought with a large enough effect; inconclusive = small, poorly fitted or top-dose-only effect, or effect the other way; inactive = no such curve, though single readings can be large or run the other way. This is one part of the list.
Outcomes: active, inactive

> print(dat)
                                 cpd.smiles  assigned.category
1                              CNCCc1ccccn1           inactive
2                      c1ccc(CCc2cccnc2)nc1             active
3  CCOC(=O)Cn1c(=O)oc2cc(S(=O)(=O)NCCc3ccc(OCC)c(OCC)c3)ccc21             active
